The origin of these recorded values is ChEMBL document CHEMBL1157830.

IC50 values by entry
test system: DU-145; assay: Cytotoxicity against human DU145 cells after 24 hrs by fluorimetric microculture cytotoxicity assay; format: functional, cell-based; details: DU-145, 24 h
Write the answer as a number in µM, unit excluded.

molecule: CC1=C(C)[C@@]2(C)CCCC(C)(C)[C@@H]2CC1
units: µM
IC50: 23.2

-- ask // query IC50 value for entry COC(=O)[C@]1(C)CCC[C@]2(C)c3cc4occc4c(C)c3C[C@@H](OC(C)=O)[C@@H]12 [TAEPEENIN D]
-- reply 3.4
